I'd appreciate it if you could supply growth values for the items below.
- Test system: HOP-62 NSCLC
- experiment summary: NCI-60 one-dose screen, 48 h (100 = growth as untreated, 0 = no growth, -100 = all killed)
- run conditions: 10 µM unless noted
About 83,000 compounds went through this panel and 20% of them were active in at least one assay; those are over-represented in the sample as a whole.
Give the value, in units of %, as a plain number.

Task: So what's the measured growth for this one? C[C@H]1[C@H]2C3=CC[C@@H]4[C@@]5(C)C/C(=C/c6ccco6)C(=O)C(C)(C)[C@@H]5CC[C@@]4(C)[C@]3(C)CC[C@@]2(C(=O)N2CCOCC2)CC[C@@H]1C
Result: 105

Task: So what's the measured growth for this one? CCC(CC)C(=O)OC(C)COc1ccc(C(C)(C)C)cc1 (configuration not stated)
Result: 103

Task: So what's the measured growth for this one? Nc1c(C(=O)Nc2cccc(Br)c2)sc2nc3c(cc12)C(=O)CCC3
Result: 40.4

Task: So what's the measured growth for this one? O=C1c2cc3c(cc2-c2c1c1ccc(Cl)cc1c(=O)n2C[C@H](O)[C@@H](O)[C@H](O)CO)OCO3
Result: -43.1

Task: So what's the measured growth for this one? O=C(CCCCCn1c2ccccc2c2c3c(c4c5ccccc5[nH]c4c21)C(=O)N(O)C3=O)N1CCOCC1
Result: 11.6

Task: So what's the measured growth for this one? CC(=O)Nc1cc(F)cc(C(F)(F)F)c1Cl
Result: 99.3

Task: So what's the measured growth for this one? COc1cnc2c(c1)C(=O)c1c-2n(CCCNCCN2CCOCC2)c(=O)c2cc([N+](=O)[O-])ccc12
Result: -0.313

Task: So what's the measured growth for this one? COc1cc(/C=N/NC(=S)NNC(=S)NC2CCCCC2)cc(OC)c1OC
Result: 94.8

Task: So what's the measured growth for this one? COc1ccc(/C=C/C(=O)NCC(C)O)cc1 (configuration not stated)
Result: 89.1

Task: So what's the measured growth for this one? O=Cc1nc2ccccc2[nH]1
Result: 90.1

Task: So what's the measured growth for this one? CCCC1CCCCN1C(=O)OCC(C)C (configuration not stated)
Result: 118

Task: So what's the measured growth for this one? Cc1cc(N(CCNc2ccnc3cc(Cl)ccc23)Cc2ccco2)nc(Cl)n1
Result: -48.2

Task: So what's the measured growth for this one? COc1cccc2c1C(=O)c1c(O)c3c(c(O)c1C2=O)C[C@@](O)(C(=O)CO)C[C@@H]3OC1C[C@H](N)[C@H](O)[C@H](C)O1 (some centres not stated)
Result: -29.2

Task: So what's the measured growth for this one? COc1cccc(-c2nn(-c3ccccc3)cc2-c2ccnc(NCCCNS(=O)(=O)c3ccc(C(F)(F)F)cc3)c2)c1
Result: 61.3

Task: So what's the measured growth for this one? Cc1ccc(Cc2cnc(NC(=O)/C=C/c3cccc(C)c3)s2)cc1
Result: 18.5

Task: So what's the measured growth for this one? CN1CCN(c2nc(-c3cccc4ccccc34)nc3sc4c(c23)CCCCCC4)CC1
Result: 75.4

Task: So what's the measured growth for this one? O=C(/C=C/c1cccc(O)c1)c1ccccc1O
Result: 94.4

Task: So what's the measured growth for this one? C=C1C(=O)O[C@H]2[C@H]1CC/C(COC(=O)NCc1cc3ccccc3[nH]1)=C\CC[C@@]1(C)O[C@@H]21
Result: 58.3

Task: So what's the measured growth for this one? COc1ccc(NC(=S)N/N=C/c2ccccc2SSCCC(=O)OC[C@H]2O[C@H](O)[C@H](O)[C@@H](O)[C@@H]2O)cc1
Result: 45.8

Task: So what's the measured growth for this one? N#C/C(=C\c1ccc(-c2ccc(F)cc2)o1)c1nc(-c2ccco2)cs1
Result: 96.7

Task: So what's the measured growth for this one? Cc1ccc(-c2nc([P+](c3ccccc3)(c3ccccc3)c3ccccc3)c(N3C[C@H]4C[C@H](C3)c3cccc(=O)n3C4)o2)cc1
Result: 90.4

Task: So what's the measured growth for this one? Cc1cccc(C)c1NC(=O)CSC(=S)N1CCN(CCOCCO)CC1
Result: 105
